# experimental_target: complex of AurA-DN/TPX2^1-43 (UniProt O14965 122-403; Q9ULW0 1-43, D274N)
# Sequence (O14965 122-403 D274N, chain 1 of 2): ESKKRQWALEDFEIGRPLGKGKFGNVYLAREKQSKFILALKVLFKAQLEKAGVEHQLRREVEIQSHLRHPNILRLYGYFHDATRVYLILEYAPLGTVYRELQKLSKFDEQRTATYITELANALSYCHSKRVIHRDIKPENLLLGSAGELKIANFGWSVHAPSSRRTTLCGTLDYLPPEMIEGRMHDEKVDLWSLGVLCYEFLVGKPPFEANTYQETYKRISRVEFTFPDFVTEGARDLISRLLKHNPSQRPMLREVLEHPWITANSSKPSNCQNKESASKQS
# Sequence (Q9ULW0 1-43, chain 2 of 2): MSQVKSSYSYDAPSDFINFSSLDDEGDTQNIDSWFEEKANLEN
# measurement_description: NMR; residue pair 519/520, with TPX2 1-43
quantity: Kd

binder="ELKEESFRDPAEVLGTGAEVDYLEQFGTSSFKESALRKQSLYLKF (domain or fragment, UniProt Q9Y6A5 519-563, looked up, also called ^15N-labelled TACC3act; source: recombinant, expressed from pETM6T1, purified (SEC); 15N- or 15N/13C-labelled for NMR) [TACC3act (human TACC3 residues 519–563)]" meas_value="600 nM"
